This section presents compounds with their documented pIC50 values.
Target: human TRPC6 (Homo sapiens, UniProt Q9Y210)
Sequence (Q9Y210 1-931): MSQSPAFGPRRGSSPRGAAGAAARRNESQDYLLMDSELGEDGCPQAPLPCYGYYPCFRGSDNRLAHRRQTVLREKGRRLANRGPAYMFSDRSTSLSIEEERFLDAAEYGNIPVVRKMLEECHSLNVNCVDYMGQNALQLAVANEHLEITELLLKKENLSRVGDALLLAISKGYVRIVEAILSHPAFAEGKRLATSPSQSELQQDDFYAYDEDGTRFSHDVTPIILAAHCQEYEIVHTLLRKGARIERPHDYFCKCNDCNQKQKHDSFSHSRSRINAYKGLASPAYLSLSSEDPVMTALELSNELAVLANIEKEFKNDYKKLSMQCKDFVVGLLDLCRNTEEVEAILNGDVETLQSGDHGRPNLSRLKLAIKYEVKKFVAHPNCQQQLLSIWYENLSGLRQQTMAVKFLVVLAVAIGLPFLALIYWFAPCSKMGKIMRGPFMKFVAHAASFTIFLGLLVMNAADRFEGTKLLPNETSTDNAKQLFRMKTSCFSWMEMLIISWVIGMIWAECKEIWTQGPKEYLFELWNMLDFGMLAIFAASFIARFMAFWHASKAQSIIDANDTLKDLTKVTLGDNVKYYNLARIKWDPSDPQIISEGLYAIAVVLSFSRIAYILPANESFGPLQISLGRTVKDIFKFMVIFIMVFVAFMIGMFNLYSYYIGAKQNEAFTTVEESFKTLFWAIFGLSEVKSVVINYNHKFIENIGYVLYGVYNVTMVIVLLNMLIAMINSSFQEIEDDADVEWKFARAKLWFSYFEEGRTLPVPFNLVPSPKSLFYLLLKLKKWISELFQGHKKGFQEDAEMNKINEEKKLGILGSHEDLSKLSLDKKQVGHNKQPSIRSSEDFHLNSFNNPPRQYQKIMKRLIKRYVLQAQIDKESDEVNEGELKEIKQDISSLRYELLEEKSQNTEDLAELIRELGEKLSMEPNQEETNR
Experiment: TRPC6 calcium flux assay (FLIPR, OAG-stimulated calcium influx)
Settings: HEK293 cells stably transfected with human TRPC6, read-out: hTRPC6 Potency
pIC50: −log10 of the molar value.
ASSAY READOUT: pIC50

[[record]]
compound = "CN(CC1CCS(=O)(=O)C1)C(=O)Cn1c(N2CC[C@@H](F)[C@H](N)C2)nc2cc(F)c(F)cc21 (mixture of isomers)"
reported_result = "< 5.43"

[[record]]
compound = "C[C@H](c1ccc(C#N)cn1)n1c(N2CC[C@@H]3OCCN[C@H]3C2)nc2c(F)cc(F)cc21"
reported_result = "< 4.30"

[[record]]
compound = "CC(C)C1CN(C(=O)Cn2c(N3CC[C@@H](F)[C@H](N)C3)nc3cc(F)c(F)cc32)C1"
reported_result = "< 5.43"

[[record]]
compound = "N[C@@H]1CN(c2nc3cc(F)c(F)cc3n2[C@@H]2CCN(C3CCOCC3)C2=O)CC[C@H]1F"
reported_result = "< 5.43"

[[record]]
compound = "COc1cc(F)cc2nc(N3CC[C@@H](F)[C@H](N)C3)n(CC(=O)N(C)CC(F)(F)F)c12 [Example 544]"
reported_result = "< 5.43"


###

This section presents compounds with their documented log10(IC50) values.
target: human TRPC6 (Homo sapiens, UniProt Q9Y210); experiment: TRPC6 calcium flux assay (FLIPR, OAG-stimulated calcium influx); settings: HEK293 cells stably transfected with human TRPC6, read-out: hTRPC6 Potency
Structures can show the parent of a compound that is named as a salt.
ASSAY READOUT: log10(IC50) (log10 of the value in nM)

[[record]]
compound = "N[C@@H]1CN(c2nc3cc(F)ccc3n2Cc2ncc(Cl)cn2)CC[C@H]1O [Example 206]"
assay_readout = "log10(IC50)"
reported_result = 1.09

[[record]]
compound = "CO[C@@H]1CCN(c2nc3ccc(F)cc3n2Cc2ccc(C#N)cn2)C[C@H]1N [Example 451]"
assay_readout = "log10(IC50)"
reported_result = -0.21

[[record]]
compound = "N[C@@H]1CN(c2nc3cc(F)c(F)cc3n2Cc2ccc(F)cc2C(F)(F)F)CC[C@H]1F [Example 356]"
assay_readout = "log10(IC50)"
reported_result = 2.38

[[record]]
compound = "N[C@@H]1CN(c2nc3cc(F)c(F)cc3n2CC(=O)N2C[C@H]3C[C@H]3C2)CC[C@H]1F [Example 607]"
assay_readout = "log10(IC50)"
reported_result = 1.16

[[record]]
compound = "N[C@@H]1CN(c2nc3cc(OC(F)(F)F)ccc3n2CC(=O)N2CCOCC2)CC[C@H]1F [Example 475]"
assay_readout = "log10(IC50)"
reported_result = 2.79

[[record]]
compound = "C[C@H](c1ccc(C#N)cn1)n1c(N2CC[C@@H](F)[C@H](N)C2)nc2cc(C#N)ccc21 [Example 224, hydrochloride]"
assay_readout = "log10(IC50)"
reported_result = 2.20

[[record]]
compound = "CN(C)C(=O)Cn1c(N2CC[C@@H](F)[C@H](N)C2)nc2ccc(Cl)cc21 [Example 502]"
assay_readout = "log10(IC50)"
reported_result = 0.96

[[record]]
compound = "N[C@@H]1CN(c2nc3cc(F)c(F)cc3n2CC(=O)N2CCN3C(=O)NCC3C2)CC[C@H]1F (stereo partly shown) [Example 642]"
assay_readout = "log10(IC50)"
reported_result = 3.22

[[record]]
compound = "N#Cc1ccc(Cn2c(N3CCC(F)(F)[C@H](N)C3)nc3cc(F)c(F)cc32)nc1 [Example 84, hydrochloride]"
assay_readout = "log10(IC50)"
reported_result = 0.10

[[record]]
compound = "N#Cc1ccc(Cn2c(N3CC[C@@H](F)[C@H](N)C3)nc3ncccc32)cc1 (single isomer, unassigned) [Example 415]"
assay_readout = "log10(IC50)"
reported_result = 2.44

[[record]]
compound = "N#Cc1ccc(Cn2c(N3C[C@@H]4CC[C@H](N)[C@@H]4C3)nc3ccccc32)nc1 [Example 77, hydrochloride]"
assay_readout = "log10(IC50)"
reported_result = 1.04

[[record]]
compound = "N#Cc1ccc(Cn2c(N3CCC(F)(F)[C@H](N)C3)nc3ccc(C#N)cc32)cc1 [Example 160]"
assay_readout = "log10(IC50)"
reported_result = 1.15

[[record]]
compound = "N#Cc1ccc(Cn2c(N3CC[C@H](N)C3)nc3ccccc32)cc1 [Example 166]"
assay_readout = "log10(IC50)"
reported_result = 2.75

[[record]]
compound = "NC(=O)c1cnc(Cn2c(N3CC[C@H](F)[C@H](N)C3)nc3cc(C(F)(F)F)ccc32)cn1 [Example 123]"
assay_readout = "log10(IC50)"
reported_result = 2.40

[[record]]
compound = "C[C@H]1CCN(c2nc3ccccc3n2Cc2ccc(C#N)cc2)C[C@H]1N [Example 180, 2,2,2-trifluoroacetate]"
assay_readout = "log10(IC50)"
reported_result = 1.17

